Measured inhibition at 10 µM values are reported for all entries that follow.
Target: human GPR84 receptor (Homo sapiens)
Construct: host or cells: HEK293 cells, transient transfection
Assay: Gαi biosensor BRET assay in HEK293 cells transfected with GPR84, stimulated with the GPR84 agonist ZQ-16
Assay type: cell-based
Settings: HEK293, single concentration, concentration class F = 10 μM, 200 nmol/L ZQ-16

[
  {
    "molecule": "CN(C)C(=O)Cn1cc(-c2ncc(-c3nnn[nH]3)cc2OC2CC2)nn1 [Compound I-232]",
    "experimentalSystem": "human GPR84 receptor (Homo sapiens)",
    "inhibition at 10 µM": "50 to 75%"
  },
  {
    "molecule": "c1n[nH]cc1-c1cnc(-c2cn(CC3OCC4(CC4)CO3)nn2)c(OC2CC2)c1 [Compound I-236]",
    "experimentalSystem": "human GPR84 receptor (Homo sapiens)",
    "inhibition at 10 µM": "> 75%"
  },
  {
    "molecule": "Cc1ccc(C#CC2CC2)cc1-c1nnc(-c2cn(CC3OCC4(CC4)CO3)nn2)o1 [Compound I-255]",
    "experimentalSystem": "human GPR84 receptor (Homo sapiens)",
    "inhibition at 10 µM": "50 to 75%"
  },
  {
    "molecule": "CC1(CO)CN(c2cnc(-c3cn(CC4CC5(CC5)CO4)nn3)c(OC3CC3)c2)C1 (stereo not drawn) [Compound I-26]",
    "experimentalSystem": "human GPR84 receptor (Homo sapiens)",
    "inhibition at 10 µM": "> 75%"
  },
  {
    "molecule": "C(#CC1CC1)c1cnc(-c2cncn2C[C@H]2CCCCO2)c(OC2CC2)c1 [Compound I-53]",
    "experimentalSystem": "human GPR84 receptor (Homo sapiens)",
    "inhibition at 10 µM": "≤ 25%"
  }
]

Give the measured inhibition at 10 µM of CN(c1cccc(C#N)c1)c1cn(CC2OCC(C)(C)CO2)nn1 [Compound I-160] . 25 to 50%

And for Cc1cc(C#CC2CC2)ccc1-c1nnc(-c2cn(CC3OCC4(CC4)CO3)nn2)o1 [Compound I-220] ? > 75%

And for CCc1cc(C#CCN)ccc1-c1cn(CC2OCC(C)(C)CO2)nn1 [Compound I-2] ? > 75%

And for Cc1cc(C#CC2CC2)cnc1-c1nnc(-c2cn(CC3OCC4(CC4)CO3)nn2)o1 [Compound I-256] ? ≤ 25%

And for O=C(Cn1cc(-c2ncc(C#CC3CC3)cc2OC2CC2)nn1)N1CC[C@H](O)C1 [Compound I-244] ? > 75%

And for c1nc(-c2cn(CC3OCC4(CC4)CO3)nn2)c(OC2CC2)cc1N1CC2(CC2)C1 [Compound I-17] ? > 75%

And for CN(c1cn(CC2OCC(C)(C)CO2)nn1)c1cc(C#N)ccc1Cl [Compound I-159] ? 25 to 50%

---

Target: human GPR84 receptor (Homo sapiens)
Construct: host or cells: HEK293 cells, transient transfection
Assay: Gαi biosensor BRET assay in HEK293 cells transfected with GPR84, stimulated with the GPR84 agonist ZQ-16
Assay type: cell-based
Details: HEK293, single concentration, concentration class F = 10 μM, 200 nmol/L ZQ-16
attributeMeasured: inhibition at 10 µM

[
  {
    "compound": "CN(C)c1cc(N2CC(C)(CO)C2)ccc1-c1cn(CC2OCC(C)(C)CO2)cn1",
    "inhibition at 10 µM": "> 75%"
  },
  {
    "compound": "[2H]C([2H])([2H])N(c1cc(N2CC(C)(CO)C2)ccc1-c1cn(CC2OCC3(CC3)CO2)nn1)C([2H])([2H])[2H]",
    "inhibition at 10 µM": "> 75%"
  },
  {
    "compound": "COc1ccc(C#Cc2cnn(CC3OCC(C)(C)CO3)n2)cc1",
    "inhibition at 10 µM": "≤ 25%"
  }
]

Give the measured inhibition at 10 µM of "Cn1nnnc1-c1cnc(-c2cn(CC3OCC4(CC4)CO3)nn2)c(OC2CC2)c1" . ≤ 25%

And for "CCc1cc(N2CCN(Cc3ccccn3)CC2)ccc1-c1cn(CC2OCC3(CC3)CO2)cn1" ? > 75%

And for "Cc1cc(N2CCN(Cc3ccccn3)CC2)ccc1-c1cn(CC(=O)N(C)C)cn1" ? 25 to 50%

And for "Fc1ccc(C#CC2CC2)cc1-c1nnc(-c2cn(CC3OCC4(CC4)CO3)nn2)o1" ? 25 to 50%

And for "CN(C)C(=O)Cn1cc(-c2ccc(N3CC(C)(CO)C3)cc2N(C)C)nn1" ? > 75%

And for "CN(c1ccc(C#CC2CC2)cc1)c1cn(CC2OCC(C)(C)CO2)nn1" ? ≤ 25%

And for "CNC(=O)Cn1cc(-c2ncc(C#CC3CC3)cc2OC2CC2)nn1" ? 25 to 50%

And for "Cc1cc(C#CCN2CC(C)(C)C2)cnc1-c1nnn(CC2OCC(C)(C)CO2)n1" ? > 75%

---

Biological target: human GPR84 receptor (Homo sapiens, UniProt Q9NQS5)
Construct: host or cells: HEK293 cells, transient transfection
Sequence (Q9NQS5 whole entry): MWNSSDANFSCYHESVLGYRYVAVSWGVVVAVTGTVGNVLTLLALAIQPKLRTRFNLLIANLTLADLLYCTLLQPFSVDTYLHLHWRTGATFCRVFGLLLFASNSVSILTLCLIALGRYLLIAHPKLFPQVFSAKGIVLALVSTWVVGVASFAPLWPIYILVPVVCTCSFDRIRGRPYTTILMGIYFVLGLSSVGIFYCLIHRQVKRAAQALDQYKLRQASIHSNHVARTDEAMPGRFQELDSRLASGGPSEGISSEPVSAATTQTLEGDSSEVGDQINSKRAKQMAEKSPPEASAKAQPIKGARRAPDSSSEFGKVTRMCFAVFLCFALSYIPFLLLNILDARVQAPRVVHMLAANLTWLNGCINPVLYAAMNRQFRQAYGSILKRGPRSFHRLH
Assay: Gαi biosensor BRET assay in HEK293 cells transfected with GPR84, stimulated with the GPR84 agonist ZQ-16
Assay type: cell-based
Conditions: HEK293, single concentration, concentration class F = 10 μM, 200 nmol/L ZQ-16
Measured inhibition at 10 µM values are reported for all entries that follow.

[
  {
    "molecule": "CN(C)c1cc(N2CCN(Cc3ccccn3)CC2)ccc1-c1cn(CC2OCC(C)(C)CO2)cn1 [Compound I-137]",
    "attributeMeasured": "inhibition at 10 µM",
    "observedResult": "≤ 25%"
  }
]

Give the measured inhibition at 10 µM of Cc1cc(C#CC2CC2)ccc1-c1cn(Cc2cnco2)nn1 [Compound I-33] . ≤ 25%

And for CN(C)c1cc(N2CC3(COC3)C2)ccc1-c1cn(CC2OCC(C)(C)CO2)cn1 [Compound I-45] ? > 75%

And for CNC(=O)c1cnc(-c2cn(CC3OCC4(CC4)CO3)nn2)c(OC2CC2)c1 [Compound I-66] ? 50 to 75%

And for CC1(CO)CN(c2ccc(-c3cn(CC4OCC5(CCC5)O4)nn3)c(CC(F)(F)F)c2)C1 (stereo not shown) [Compound I-144] ? > 75%

And for CCc1cc(C#CC(N)=O)ccc1-c1cn(CC2OCC(C)(C)CO2)nn1 [Compound I-37] ? > 75%

And for Cc1cc(N2CCN(C(C)c3ccccn3)CC2)ccc1-c1cn(CC2OCC3(CC3)CO2)cn1 (stereo not shown) [Compound I-48] ? > 75%

And for c1nc(-c2cn(CC3OCC4(CC4)CO3)nn2)c(OC2CC2)cc1N1CC2(COC2)C1 [Compound I-20] ? > 75%

And for CC1(C)COC(Cn2cc(Cc3cc(C#CC4CC4)ccc3Cl)nn2)OC1 [Compound I-136] ? > 75%

And for Fc1cc(C#CC2CC2)ccc1-c1nnc(-c2cn(CC3OCC4(CC4)CO3)nn2)o1 [Compound I-257] ? > 75%

And for O=C(Cn1cc(-c2ncc(C#CC3CC3)cc2OC2CC2)nn1)N1C[C@H](O)[C@@H](O)C1 [Compound I-247] ? > 75%

And for O=C(Cn1cc(-c2c(OC3CC3)cc(C#CC3CC3)c[n+]2[O-])nn1)N1CCCC1 [Compound I-253] ? > 75%

And for Cn1nncc1-c1cnc(-c2cn(CC3OCC4(CC4)CO3)nn2)c(OC2CC2)c1 [Compound I-225] ? 50 to 75%

---

Biological target: human GPR84 receptor (Homo sapiens)
Construct: host or cells: HEK293 cells, transient transfection
Assay: Gαi biosensor BRET assay in HEK293 cells transfected with GPR84, stimulated with the GPR84 agonist ZQ-16
Type: cell-based
Settings: HEK293, single concentration, concentration class F = 10 μM, 200 nmol/L ZQ-16
attributeMeasured: inhibition at 10 µM

Reference set, count: 3
[
  {
    "compound": "c1ccc(CN2CCN(c3cnc(-c4cn(CC5OCC6(CC6)CO5)cn4)c(OC4CC4)c3)CC2)nc1",
    "attributeMeasured": "inhibition at 10 µM",
    "observedResult": "25 to 50%"
  },
  {
    "compound": "Cn1cncc1-c1cnc(-c2cn(CC3OCC4(CC4)CO3)nn2)c(OC2CC2)c1",
    "attributeMeasured": "inhibition at 10 µM",
    "observedResult": "50 to 75%"
  },
  {
    "compound": "CN(C)C(=O)CCn1cc(-c2ncc(C#CC3CC3)cc2OC2CC2)nn1",
    "attributeMeasured": "inhibition at 10 µM",
    "observedResult": "25 to 50%"
  }
]

Give the measured inhibition at 10 µM of "Cc1cc(C#CC2CC2)ccc1-c1nnc(-c2cn(CC(=O)N(C)C)nn2)o1" . ≤ 25%

And for "CC1(C)COC(Cn2cc(-c3ncc(C(=O)NCc4cnccn4)cc3OC3CC3)nn2)OC1" ? ≤ 25%

And for "CN(C)C(=O)Cn1cc(-c2ncc(C#N)cc2OC2CC2)nn1" ? ≤ 25%
